Molecular target: Human GLP-1 receptor (Homo sapiens)
Construct: The full-length cDNA was cloned in pcDNA3.1(+); expressed in transfected cells
Sequence (P43220 24-463): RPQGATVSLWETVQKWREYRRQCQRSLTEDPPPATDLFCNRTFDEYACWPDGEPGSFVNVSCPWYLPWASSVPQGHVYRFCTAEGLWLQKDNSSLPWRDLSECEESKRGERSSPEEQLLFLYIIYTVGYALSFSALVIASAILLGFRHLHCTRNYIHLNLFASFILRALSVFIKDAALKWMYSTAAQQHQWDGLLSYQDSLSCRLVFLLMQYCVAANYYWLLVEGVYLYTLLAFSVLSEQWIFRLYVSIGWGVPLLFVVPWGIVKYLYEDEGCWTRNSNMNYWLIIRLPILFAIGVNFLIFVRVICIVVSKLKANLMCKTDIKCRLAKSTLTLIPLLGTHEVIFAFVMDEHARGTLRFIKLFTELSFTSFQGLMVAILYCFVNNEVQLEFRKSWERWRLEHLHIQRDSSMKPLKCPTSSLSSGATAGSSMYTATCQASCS
Test: In vitro Human GLP-1 R agonist activity (cyclic AMP determination) in CHO/human GLP1R cells
Type: cell-based
Details: 10 nM test compound
RECORDED_ENDPOINT: Human GLP-1 R activity (cAMP release), % activity with respect to control

{"COMPOUND": "CCc1cc(OC)ccc1-c1ccc(CC(NC(=O)[C@H](CC(=O)O)NC(=O)[C@H](CO)NC(=O)[C@@H](NC(=O)C(C)(Cc2ccccc2)NC(=O)[C@@H](NC(=O)CNC(=O)[C@H](CC(C(F)(F)F)C(F)(F)F)NC(=O)C(C)(C)NC(=O)[C@@H](N)Cc2c[nH]cn2)[C@@H](C)O)[C@@H](C)O)C(=O)NC(CCCc2ccccc2)C(N)=O)cc1 (single isomer, unassigned)", "READOUT_VALUE": "99 ± 0.08%"}
{"COMPOUND": "CCc1cc(OC)ccc1-c1ccc(CC(NC(=O)[C@H](CC(=O)O)NC(=O)[C@H](CO)NC(=O)[C@@H](NC(=O)[C@H](Cc2ccccc2)NC(=O)[C@@H](NC(=O)CNC(=O)C(CCC#N)NC(=O)C(C)(C)NC(=O)[C@@H](N)Cc2c[nH]cn2)[C@@H](C)O)[C@@H](C)O)C(=O)NC(CCCc2ccccc2C(F)(F)F)C(N)=O)cc1 (single isomer, unassigned)", "READOUT_VALUE": "94 ± 0.09%"}
{"COMPOUND": "CCc1cc(OC)ccc1-c1ccc(CC(NC(=O)[C@H](CC(=O)O)NC(=O)[C@H](CO)NC(=O)[C@@H](NC(=O)[C@H](Cc2ccccc2)NC(=O)[C@@H](NC(=O)CNC(=O)[C@H](CCC(N)=O)NC(=O)[C@H](CO)NC(=O)[C@@H](N)Cc2c[nH]cn2)[C@@H](C)O)[C@@H](C)O)C(=O)NC(CCCc2ccccc2Cl)C(N)=O)cc1 (single isomer, unassigned)", "READOUT_VALUE": "92 ± 0.15%"}
{"COMPOUND": "CCc1cc(OC)ccc1-c1ccc(CC(CNC(CCCc2ccccc2)C(N)=O)NC(=O)[C@H](CC(=O)O)NC(=O)[C@H](CO)NC(=O)[C@@H](NC(=O)C(C)(Cc2ccccc2F)NC(=O)[C@@H](NC(=O)CNC(=O)[C@H](CCC(N)=O)NC(=O)C(C)(C)NC(=O)[C@H](Cc2c[nH]cn2)NC(C)=O)[C@H](C)O)[C@H](C)O)cc1 (single isomer, unassigned)", "READOUT_VALUE": "85 ± 0.46%"}
{"COMPOUND": "CCc1cc(OC)ccc1-c1ccc(CC(NC(=O)[C@H](CC(=O)O)NC(=O)[C@H](CO)NC(=O)[C@@H](NC(=O)[C@H](Cc2ccccc2)NC(=O)[C@@H](NC(=O)CNC(=O)C(CCC#N)NC(=O)C(C)(C)NC(=O)[C@@H](N)Cc2c[nH]cn2)[C@@H](C)O)[C@@H](C)O)C(=O)NC(CCCc2ccc(OC)cc2Cl)C(N)=O)cc1 (single isomer, unassigned)", "READOUT_VALUE": "77 ± 0.16%"}
{"COMPOUND": "CCc1cc(OC)ccc1-c1ccc(CC(NC(=O)[C@H](CC(=O)O)NC(=O)[C@H](CO)NC(=O)[C@@H](NC(=O)C(C)(Cc2ccccc2F)NC(=O)[C@@H](NC(=O)CNC(=O)C(CCC#N)NC(=O)C(C)(C)NC(=O)[C@@H](N)Cc2c[nH]cn2)[C@H](C)O)[C@H](C)O)C(=O)N(C)C(CCCc2ccccc2)C(N)=O)cc1 (single isomer, unassigned)", "READOUT_VALUE": "81 ± 0.08%"}
